All figures here come from the supplement of paper PMC6607015.

System: HeLa MZ
procedure_text: whole-cell filipin (free cholesterol) integrated intensity, Z-score; higher = more cholesterol staining
experimental_parameters: compound concentration in added solution (µM; 5 µl added to 20 µl cells): 10; 18 h
Where a name gives a salt, the structure may show the parent alone.
Each entry gets false if its whole-cell filipin (z-score) stays under -0.6, and true if its whole-cell filipin (z-score) is -0.6 or above.

>>> df
                                   compound  class_assignment
0  O=C(OCC(O)CO)c1ccccc1Nc1ccnc2cc(Cl)ccc12 (stereo not drawn) [Glafenine hydrochloride]             false
1  C[C@H](CCC(=O)O)[C@H]1CC[C@H]2[C@@H]3C(=O)C[C@@H]4CC(=O)CC[C@]4(C)[C@H]3CC(=O)[C@]12C [Dehydrocholic acid]              true
2  COc1c(N2C[C@@H]3CCCN[C@@H]3C2)c(F)cc2c(=O)c(C(=O)O)cn(C3CC3)c12              true
3  C(=C\c1ccccc1)/CN1CCN(C(c2ccccc2)c2ccccc2)CC1              true
4     COc1cc(NS(=O)(=O)c2ccc(N)cc2)nc(OC)n1              true
5           Nc1ccc(S(=O)(=O)c2ccc(N)cc2)cc1             false
6  CCN(CC)CCNC(=O)COc1ccc(OC)cc1 [Mefexamide hydrochloride]             false
7  CCCCOc1ccc(C(=O)CCN2CCCCC2)cc1 [Dyclonine hydrochloride]             false

====

Test system: A431
procedure_text: filipin (cholesterol) integrated intensity within LBPA endosomes, Z-score; higher = more cholesterol in LBPA endosomes
experimental_parameters: compound concentration in added solution (µM; 5 µl added to 20 µl cells): 10; 18 h
Counter-ions that a name gives are not always drawn.
Lab note: anything with filipin (z-score) at or over -0.4 counts as 1; the rest go in -1.

molecule	class_assignment
CC(C)(C#N)c1cc(Cn2cncn2)cc(C(C)(C)C#N)c1	-1
CO[C@H]1/C=C/O[C@@]2(C)Oc3c(C)c(O)c4c(O)c(c(/C=N/N5CCN(C6CCCC6)CC5)c(O)c4c3C2=O)NC(=O)/C(C)=C\C=C\[C@H](C)[C@H](O)[C@@H](C)[C@@H](O)[C@@H](C)[C@H](OC(C)=O)[C@@H]1C	-1
C#CCN(C)Cc1ccccc1 [Pargyline hydrochloride]	-1
CC(C)(O)c1ccccc1CC[C@@H](SCC1(CC(=O)O)CC1)c1cccc(/C=C/c2ccc3ccc(Cl)cc3n2)c1	-1
COc1cc(N)c(Cl)cc1C(=O)NC1CCN(Cc2ccccc2)CC1 [Clebopride maleate]	1
CC(=O)OCC(=O)[C@@]1(OC(C)=O)[C@@H](C)C[C@H]2[C@@H]3C[C@H](F)C4=CC(=O)C=C[C@]4(C)[C@@]3(F)[C@@H](O)C[C@@]21C [Diflorasone Diacetate]	1
CCCCC[C@H](O)/C=C/[C@H]1[C@H](O)CC(=O)[C@@H]1CCCCCCC(=O)O	1

====

Each entry below carries its recorded LBPA endosome anti-LBPA integrated intensity (z-score).
Tested on: HeLa MZ
procedure_text: LBPA endosome anti-LBPA integrated intensity (sum per cell), Z-score; higher = more LBPA staining
experimental_parameters: compound concentration in added solution (µM; 5 µl added to 20 µl cells): 10; 18 h
Structures can show the parent of a compound that is named as a salt.
observable: LBPA endosome anti-LBPA integrated intensity (z-score)

compound	endpoint_value
CO[C@@]1(NC(=O)C(C(=O)O)c2ccc(O)cc2)C(=O)N2C(C(=O)O)=C(CSc3nnnn3C)CO[C@@H]21 (stereo partly specified) [Moxalactam disodium salt]	0.127
N=C(N)N/N=C/c1c(Cl)cccc1Cl [Guanabenz acetate]	0.543
CNC(=O)c1c(I)c(C(=O)NCC(=O)Nc2c(I)c(C(=O)O)c(I)c(C(=O)NCCO)c2I)c(I)c(N(C)C(C)=O)c1I	-0.394
CC(=O)O[C@]1(C(C)=O)CC[C@H]2[C@@H]3C=C(Cl)C4=CC(=O)CC[C@]4(C)[C@H]3CC[C@@]21C [Chlormadinone acetate]	2.23
CC(C)(O/N=C(\C(=O)N[C@@H]1C(=O)N2C(C(=O)[O-])=C(C[n+]3ccccc3)CS[C@H]12)c1csc(N)n1)C(=O)O [Ceftazidime pentahydrate]	-0.783
COc1ccccc1O	0.0632
C[C@H](CS)C(=O)N1CCC[C@H]1C(=O)O	-0.389
CCCN(CCC)C(=O)C(CCC(=O)O)NC(=O)c1ccccc1 (stereo unspecified) [Proglumide]	-1.36
CN(C)[C@@H]1C(O)=C(C(=O)NCNCCCC[C@H](N)C(=O)O)C(=O)[C@@]2(O)C(O)=C3C(=O)c4c(O)cccc4[C@@](C)(O)[C@H]3C[C@@H]12	0.509
CCOc1ccccc1OC(c1ccccc1)C1CNCCO1 (stereo unspecified) [Reboxetine mesylate]	0.133
Cc1cc2c(s1)Nc1ccccc1N=C2N1CCN(C)CC1	1.62
CCN(CC)CCOC(=O)c1ccc(N)cc1 [Procaine hydrochloride]	0.381
COc1cc([S+](C)[O-])ccc1-c1nc2cccnc2[nH]1 (stereo unspecified)	-1.23
CN[C@@H]1[C@@H](O)[C@@H](O[C@@H]2[C@@H](O)[C@H](O[C@H]3OC(CN)=CC[C@H]3N)[C@@H](N)C[C@H]2N)OC[C@]1(C)O [Sisomicin sulfate]	-0.481
COc1cc2nc(N3CCN(C(=O)C4CCCO4)CC3)nc(N)c2cc1OC (stereo unspecified) [Terazosin hydrochloride]	0.906
O=C(Cn1ccnc1[N+](=O)[O-])NCCO	-0.402
COc1cnc(NS(=O)(=O)c2ccc(N)cc2)nc1	-0.0725
CC[C@H]1OC(=O)C[C@@H](O)[C@H](C)[C@@H](O[C@@H]2O[C@H](C)[C@@H](O[C@H]3C[C@@](C)(O)[C@@H](O)[C@H](C)O3)[C@H](N(C)C)[C@H]2O)[C@@H](CC=O)C[C@@H](C)C(=O)/C=C/C(C)=C/[C@@H]1CO[C@@H]1O[C@H](C)[C@@H](O)[C@@H](OC)[C@H]1OC	0.456
CS(=O)(=O)c1ccc(C2=C(c3ccccc3)C(=O)OC2)cc1	-1.7
CC(Cc1cccc(C(F)(F)F)c1)NCCOC(=O)c1ccccc1 (stereo unspecified) [Benfluorex hydrochloride]	-0.59
CCc1nc(N)nc(N)c1-c1ccc(Cl)cc1	0.917
CCCOc1ccccc1-c1nc2[nH]nnc2c(=O)[nH]1	-0.755
C[N+](C)(CCOc1ccccc1)Cc1ccccc1.O=C([O-])c1cc2ccccc2cc1O [Bephenium hydroxynaphthoate]	0.146
CCCNC(C)C(=O)Nc1ccccc1C (stereo unspecified) [Prilocaine hydrochloride]	-0.0706
CC(C)(Oc1ccc(C2CC2(Cl)Cl)cc1)C(=O)O (stereo unspecified) [Ciprofibrate]	-0.255
C[C@@H](O)[C@H]1C(=O)N2C(C(=O)O)=C(SCCNC=N)C[C@H]12	0.231
CC(C)NC[C@H](O)COc1ccc(CC(N)=O)cc1 [(S)-(-)-Atenolol]	0.0669
CCn1cc(C(=O)O)c(=O)c2cc(F)c(N3CCN(C)CC3)cc21	-0.713
COc1cc(NS(=O)(=O)c2ccc(N)cc2)ncn1	0.107
Fc1ccc(C(c2ccc(F)cc2)N2CCN(C/C=C/c3ccccc3)CC2)cc1 [Flunarizine dihydrochloride]	-0.311
COc1ccc([C@@H]2CC(=O)c3c(O)cc(O[C@@H]4O[C@H](CO[C@@H]5O[C@@H](C)[C@H](O)[C@@H](O)[C@H]5O)[C@@H](O)[C@H](O)[C@H]4O)cc3O2)cc1O	-1.29
